assayText: Phase 1 drug-interaction study, prednisone with isavuconazole: pharmacokinetics
conditionNotes: both, human, in vivo, po, 20 mg
readout: AUC(0-t)
The reply must contain the numeric value and, after it, the unit.

# AUC(0-t) lookup, item C[C@]12C=CC(=O)C=C1CC[C@@H]1[C@@H]2[C@@H](O)C[C@@]2(C)[C@H]1CC[C@]2(O)C(=O)CO
1640 ng·h/mL

---

assayText: Phase 1 drug-interaction study, sirolimus with isavuconazole: pharmacokinetics
Type: in vivo, human (healthy subjects)
conditionNotes: both, human, whole blood, po, 2 mg
readout: half-life (h)
Give bare numbers, in h.

Request the reported half-life associated with CO[C@H]1C[C@@H]2CC[C@@H](C)[C@@](O)(O2)C(=O)C(=O)N2CCCC[C@H]2C(=O)O[C@H]([C@H](C)C[C@@H]2CC[C@@H](O)[C@H](OC)C2)CC(=O)[C@H](C)/C=C(\C)[C@@H](O)[C@@H](OC)C(=O)[C@H](C)C[C@H](C)/C=C/C=C/C=C/1C
74.8
